SYSTEM UNDER TEST: recombinant full-length human prolyl endopeptidase (PREP) (Homo sapiens)
Construct: To recombinant full-length human prolyl endopeptidase (PREP, R&D-Systems, 4308-SE)
Sequence (P48147 whole entry): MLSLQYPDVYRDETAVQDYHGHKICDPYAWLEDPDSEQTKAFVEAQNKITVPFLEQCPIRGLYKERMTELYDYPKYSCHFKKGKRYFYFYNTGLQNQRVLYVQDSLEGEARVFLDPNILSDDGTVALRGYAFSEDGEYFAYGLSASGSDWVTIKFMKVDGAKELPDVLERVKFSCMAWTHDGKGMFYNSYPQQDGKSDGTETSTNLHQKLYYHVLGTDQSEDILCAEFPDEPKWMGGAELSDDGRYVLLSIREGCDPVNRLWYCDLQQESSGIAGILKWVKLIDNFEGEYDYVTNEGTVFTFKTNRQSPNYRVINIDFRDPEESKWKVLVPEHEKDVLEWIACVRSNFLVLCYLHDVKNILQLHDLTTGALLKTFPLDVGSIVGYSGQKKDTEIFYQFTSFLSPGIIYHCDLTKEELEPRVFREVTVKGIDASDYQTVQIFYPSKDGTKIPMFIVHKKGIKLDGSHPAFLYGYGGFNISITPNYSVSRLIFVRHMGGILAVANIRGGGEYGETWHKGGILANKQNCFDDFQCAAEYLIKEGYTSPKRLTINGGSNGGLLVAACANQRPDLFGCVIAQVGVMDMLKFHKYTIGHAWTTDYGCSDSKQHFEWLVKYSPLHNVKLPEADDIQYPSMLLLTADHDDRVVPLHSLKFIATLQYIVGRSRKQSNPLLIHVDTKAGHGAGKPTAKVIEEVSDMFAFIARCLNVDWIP
PROTOCOL NOTES: Biochemical human prolyl endopeptidase (PREP) assay with fluorescently labelled substrate
TEST CONTEXT: substrate Z-Gly-Pro-AMC 50 μM, 32° C., 60 min; some as mean values from multiple independent determinations
# IC50 binned as range A: < 1 nM; range B: ≥ 1 nM and < 30 nM; range C: ≥ 30 nM

INSERT INTO measurements (compound, class_name) VALUES
  ('O=C([C@@H]1CCCc2nn(Cc3ccc(F)c(F)c3)c(=O)n21)N1CCC(F)(F)C1 [Example 468]', 'range B'),
  ('O=C(C1CCc2nn(Cc3ccc(F)c(Cl)c3)c(=O)n21)N1C[C@@H](F)[C@@H](F)C1 (mixture of isomers) [Example 174]', 'range B'),
  ('O=C([C@@H]1CCCc2nn(Cc3ncc(F)cc3F)c(=O)n21)N1CC[C@H](F)C1 [Example 581]', 'range A'),
  ('Cc1ccc(Cn2nc3n(c2=O)C(C(=O)N2CCC4CC42)CCC3)cc1 (racemic) [Example 144]', 'range B'),
  ('COc1ccc(CCn2nc3n(c2=O)[C@H](C(=O)N2CC(F)(F)C2)CCC3)cc1 [Example 523]', 'range B'),
  ('O=C(C1CCCc2nn(Cc3ccccn3)c(=O)n21)N1CCCC1 (racemic) [Example 22]', 'range C'),
  ('O=C([C@@H]1CCCc2nn(Cc3ncc(Cl)cc3Cl)c(=O)n21)N1CC(F)C1 [Example 398]', 'range B'),
  ('O=C([C@@H]1CCCc2nn(Cc3nnc(C(F)(F)F)o3)c(=O)n21)N1C[C@@H](F)[C@@H](F)C1 [Example 543]', 'range C'),
  ('O=C(C1CC(C(F)(F)F)Cc2nn(Cc3ncc(F)cc3F)c(=O)n21)N1CC[C@H](F)C1 (mixture of isomers) [Example 569]', 'range A'),
  ('O=C(C1CCCc2nn(Cc3cc(C(F)(F)F)ccc3C(F)(F)F)c(=O)n21)N1CCCC1 (racemic) [Example 65]', 'range B'),
  ('CC1Cc2nn(Cc3ccc(F)c(Cl)c3)c(=O)n2C(C(=O)N2CC(F)C2)C1 (racemic) [Example 340]', 'range A'),
  ('O=C([C@@H]1CCCc2nn(Cc3csc(C(F)(F)F)n3)c(=O)n21)N1CC[C@H](F)C1 [Example 365]', 'range B'),
  ('Cc1ccc(Cn2nc3n(c2=O)[C@H](C(=O)N2CCC4CC42)CCC3)cc1 (single isomer, unassigned) [Example 189]', 'range C'),
  ('CC(c1ccc(Cl)cc1)n1nc2n(c1=O)C(C(=O)N1CCCC1)CCC2 (single isomer, unassigned) [Example 5]', 'range B'),
  ('O=C(C1CC(C(F)(F)F)Cc2nn(Cc3ccnc(C(F)(F)F)c3F)c(=O)n21)N1CC[C@H](F)C1 (single isomer, unassigned) [Example 258]', 'range C');
